Test system: UACC-257 melanoma
protocol: NCI-60 one-dose screen, 48 h (100 = growth as untreated, 0 = no growth, -100 = all killed)
test settings: 10 µM unless noted
This is part of a sample that, as a whole, favours compounds with a hit. Of some 83,000 tested, about 20% had one in any assay.

{"columns": ["compound", "measure unit", "growth"],
 "data": [
  ["CSc1ccc2c(c1)N(C(=O)/C(C#N)=C/c1c[nH]c3ccccc13)c1ccccc1S2", "%", 57],
  ["CC(C)(C)Nc1nc2c(OCCc3ccccc3)cccn2c1-c1cccc(F)c1", "%", 1.34],
  ["CS(=O)(=O)c1ccc(-c2nc3ccccn3c2-c2nc3ccc([N+](=O)[O-])cc3[nH]2)cc1", "%", 106],
  ["COc1ccc(-n2c(SCC(=O)Nc3ccc(-c4nc5ccccc5[nH]4)cc3)nc3ccccc3c2=O)cc1", "%", 45.3],
  ["O=C(Nc1nc2ccc(O)cc2s1)c1cccc(C(F)(F)F)c1", "%", 70.1],
  ["Cc1ccc(-c2nc(C(Cl)Cl)nc3cc(-c4ccccc4)nn23)cc1", "%", 28.9],
  ["Cc1c(Nc2nnc(SCC(=O)Nc3sc4c(c3C#N)CCCC4)s2)c(=O)n(-c2ccccc2)n1C", "%", 116],
  ["O=C1Nc2ccccc2Oc2ccc(S(=O)(=O)CC3CO3)cc21 (stereo not drawn)", "%", 65]
]}

====

Tested on: K-562 leukemia
protocol: NCI-60 one-dose screen, 48 h (100 = growth as untreated, 0 = no growth, -100 = all killed)
test settings: 10 µM unless noted
The panel holds about 83,000 compounds, 20% with a hit somewhere; the sample as a whole holds those more often.

{"columns": ["smiles repr", "growth (%)"],
 "data": [
  ["C/C(=C(/c1ccc(Cl)cc1)c1ccc(OCCN)cc1)c1ccc(C)cc1", 90.8],
  ["CCC/C=C/C=C/C(=O)N[C@@H](Cc1cc(F)cc(F)c1)C(=O)N[C@@H]1C(=O)N2CCC[C@H]2C(=O)N2CCCC[C@H]2C(=O)N[C@@H](C)C(=O)N2C[C@H](C)C[C@H]2C(=O)O[C@H]1C", 17.6],
  ["Clc1ccc2c(OCCCN3CCOCC3)c3oc4ccccc4c3nc2c1", 19.8]
]}

====

Tested on: K-562 leukemia
protocol: NCI-60 one-dose screen, 48 h
test settings: 10 µM unless noted
Compounds without any hit were thinned out: in the full panel of roughly 83,000, 20% have a hit. Active and inactive are the calls of the source. The calls were made as follows: active = growth percent below 10; inactive = the rest.
Possible outcomes: active, inactive

{"columns": ["compound", "assigned class"],
 "data": [
  ["O=C1c2c(c3c4cc(Br)ccc4[nH]c3c3ccc4ccccc4c23)C(=O)N1CCO", "inactive"],
  ["CN1C(=S)N(C)C2C1NN=C1SC(c3ccccc3)=CC(=O)N12 (centres undefined)", "inactive"],
  ["COc1ccc(-c2nc3ccc(-c4nnc(SCC(=O)Nc5ccc(C(C)=O)cc5)o4)cc3[nH]2)cc1", "inactive"],
  ["CCOC(=O)c1c(Nc2ccccc2)nn2c(N)c(C#N)c(-c3ccc(F)cc3)nc12", "inactive"],
  ["Clc1ccc2c(NCCCN3CCOCC3)c3oc4ccccc4c3nc2c1", "inactive"],
  ["COc1cc(/C=C/C(=O)c2cc(OC)c(OC)c(OC)c2)ccc1OCc1ccccc1", "inactive"],
  ["c1ccc2c(NCCCn3ccnc3)c3oc4ccccc4c3nc2c1", "active"],
  ["OC1CCc2c(-c3ccc4ncnc(N5CCc6cc(F)c(Cl)cc65)c4c3)cncc21 (centres undefined)", "inactive"],
  ["Cn1ccnc1C(=O)/C=C/c1ccc(NC(=O)Nc2ccccc2)cc1", "active"],
  ["O=C(O)CCCCCN1C(=O)/C(=C/c2ccc(O)c(O)c2)SC1=S", "inactive"],
  ["COc1ccc(COc2ccc(/C=C3/C(=O)Nc4cc(Cl)ccc43)cc2)cc1", "inactive"],
  ["Cc1sc2c(c1C)c(=O)nc1c(-c3nc(-c4ccc(F)cc4)no3)n[nH]n12", "inactive"],
  ["Cn1ccnc1C(=O)/C=C/c1ccc(NC(=O)Nc2ccc(Cl)cc2)cc1", "inactive"],
  ["C=CCSc1ccc2c(c1)C(N1CCNCC1)=Nc1ccccc1O2", "inactive"]
]}

Ref: PubChem BioAssay (NCI)
